For each record, write down the corresponding dCas9 with SSAP activity (normalized).
# Test system: gene editing with dCas9
# EXPERIMENT_NOTES: Screen of 322 new SSAP proteins, gene editing activity with dCas9 (Table 5)
# Format: cell-based
# EXPERIMENTAL_PARAMETERS: normalized
# Description: 322 new SSAP proteins were identified from sequence data, synthesized, and screened for activity with Cas9 and dCas9. Gene editing activities are shown below in Table 5, followed by amino acid sequences of the proteins.
Respond using a number only.

Input line: For the molecule shown here, SSAP_307: SEQ ID NO: 476; Acetobacterium dehalogenans (protein, Acetobacterium dehalogenans) CLRSWTRSFSNSVPLKIRFRLLYTAFLSQGSPLSSVNTTQSADKGSPIFFYAMFKTKDGGYGFEVMSVEDVRAHAKKYSQSFSSAYSPWSKNFEEMAKKTVLKKALKYAPLKSDFVRGIVVDETIKREISEDMYAAPSIEIEYEVDEDGVIQDEPTSNELTEAEK , give the reported dCas9 with SSAP activity (normalized).
Output line: −0.907

Input line: Look up dCas9 with SSAP activity (normalized) for this molecule: SSAP_232: SEQ ID NO: 401; Lactococcus fujiensis JCM 16395 (protein, listed as Lactococcus fujiensis) KSAPVQARFQEVLGKKSSGFVSSLLTVVNNNNLLKRATPDSIMTAAMKAATLDLPIEPSLGFAYIIPYGQEAQFQIGYKGLIQLALRSGQITGLNSGIVYKSQFISYDPLFEELEIDFMQPEDEVVGYFASMKLSNGFMKVVYWTKARVENHKKRFSKAGAKSPWATDFDAMAQKTVLKAMISKFAPLSQEMQIAVIADNESETLEPKDVTPEQPLISIDEPKENENSQSQISIPEDQAPQQENEEFVEELFPVGQA
Output line: −0.721

Input line: Please look up its dCas9 with SSAP activity (normalized): SSAP_14: SEQ ID NO: 183 (protein) TTALQTLTNKLAERFEMGDGSGLVETLKSSAFAGATVSDAQMIALLVIANQYQLNPWTKEIYAFPGGNGGLTPIVGVDGWVRIINREPQYDGMEFHFTDDYSACTCTIYRKDRSKPIVVTEFMGECKKSSPAWNSHPKRMLRHKAMIQCARLAFGFTGIYDQDEAERIAENEKPPKNITPQNNVVETTAVELISEEQLSQIRQLMQVTGTEEAKILAYIGVQALNQIPKSQAEAVIKKLNLTLDKQNAEKADNGESVGEEIPL
Output line: −0.702

Input line: What dCas9 with SSAP activity (normalized) value was documented for this molecule, SSAP_211: SEQ ID NO: 380; unclassified Streptomyces (protein, listed as Streptomyces sp.) SQIGNAIATRDEGPAAQIEVYRDEYAALVPSHVNADQWVRLAVGAIRGNDDLLKAAGNDIGLFLREMKTAARLGLEPGTEQFYLTPRKSKAHGGRPVIKGIVGYQGIVELIYRAGAASTVIVEAVRQNDVFRYVPGRDDRPVHEIDWFGQDRGPLVGVYAYAVMKDGAVSKVVVLNKARVMELKAKSDSKNSPYSPWNTNEEAMWLKSGVRQLAKWVPTSAEFRRDQLLAHTDTADGVIASVSAPPLPPQSAALEDLDPDDEGPIDGELLDD ?
Output line: −0.904
